- system-tested: JAK2 (Homo sapiens)
- Construct: GST; purchased Life Technologies
- Sequence (O60674 whole entry): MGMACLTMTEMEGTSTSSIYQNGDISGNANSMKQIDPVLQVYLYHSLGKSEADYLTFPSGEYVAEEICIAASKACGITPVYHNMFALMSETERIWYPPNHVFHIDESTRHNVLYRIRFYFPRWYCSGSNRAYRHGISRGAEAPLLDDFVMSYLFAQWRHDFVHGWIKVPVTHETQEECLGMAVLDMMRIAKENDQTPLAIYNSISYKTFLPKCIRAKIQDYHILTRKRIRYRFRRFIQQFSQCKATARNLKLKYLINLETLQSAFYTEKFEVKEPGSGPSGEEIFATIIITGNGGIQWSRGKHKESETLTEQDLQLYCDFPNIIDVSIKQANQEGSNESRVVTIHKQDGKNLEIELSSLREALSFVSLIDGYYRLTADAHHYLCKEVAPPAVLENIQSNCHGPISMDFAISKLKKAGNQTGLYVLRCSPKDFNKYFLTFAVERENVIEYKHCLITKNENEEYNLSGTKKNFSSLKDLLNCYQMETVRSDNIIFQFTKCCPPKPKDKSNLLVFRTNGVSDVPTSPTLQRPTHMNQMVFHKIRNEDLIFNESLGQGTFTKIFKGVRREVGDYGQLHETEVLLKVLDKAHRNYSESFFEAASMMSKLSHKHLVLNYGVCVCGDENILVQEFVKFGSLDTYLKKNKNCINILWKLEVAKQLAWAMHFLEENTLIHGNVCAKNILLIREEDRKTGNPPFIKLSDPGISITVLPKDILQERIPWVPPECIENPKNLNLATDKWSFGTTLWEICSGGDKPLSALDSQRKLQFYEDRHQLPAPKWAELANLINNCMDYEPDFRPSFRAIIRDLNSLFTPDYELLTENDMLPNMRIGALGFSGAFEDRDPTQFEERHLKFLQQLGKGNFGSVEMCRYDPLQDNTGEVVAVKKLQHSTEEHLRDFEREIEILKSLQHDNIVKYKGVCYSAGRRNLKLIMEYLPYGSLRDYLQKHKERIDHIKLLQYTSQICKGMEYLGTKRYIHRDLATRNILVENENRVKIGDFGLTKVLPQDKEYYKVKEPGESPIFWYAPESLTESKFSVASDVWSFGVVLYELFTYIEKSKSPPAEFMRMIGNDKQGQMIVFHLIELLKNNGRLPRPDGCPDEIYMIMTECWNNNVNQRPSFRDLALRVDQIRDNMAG
- assay-overview: Biochemical LanthaScreen JAK2 kinase assay
- condition: Km ATP 3 μM; pKi from pIC50 by Cheng-Prusoff; read-out: JAK 2 (pKi) (converted)

>  <smiles-repr>
CCS(=O)(=O)N1[C@@H]2CCC[C@H]1C[C@H](N(C)c1nc(COC(C)=O)c(F)c(Nc3cc(C)[nH]n3)n1)C2

>  <Ki>
≤ 0.1 nM

$$$$
>  <smiles-repr>
CCS(=O)(=O)N1[C@@H]2CCC[C@H]1C[C@H](N(C)c1nc(COC(=O)OC3CCOCC3)c(F)c(Nc3cc(C)[nH]n3)n1)C2

>  <Ki>
≤ 0.1 nM

$$$$
>  <smiles-repr>
CCS(=O)(=O)N1[C@@H]2CCC[C@H]1C[C@H](N(C)c1nc(COC(=O)OC3CCCCC3)c(F)c(Nc3cc(C)[nH]n3)n1)C2

>  <Ki>
0.1 to 1 nM

$$$$
>  <smiles-repr>
CCS(=O)(=O)N1[C@@H]2CCC[C@H]1C[C@H](N(C)c1nc(CO)c(F)c(Nc3cc(C)[nH]n3)n1)C2

>  <Ki>
≤ 0.1 nM

$$$$
>  <smiles-repr>
CCS(=O)(=O)N1[C@@H]2CCC[C@H]1C[C@H](N(C)c1nc(COC(=O)C3CCOCC3)c(F)c(Nc3cc(C)[nH]n3)n1)C2

>  <Ki>
≤ 0.1 nM

$$$$

---

Here, each record is paired with measured solubility at 4 h data.
- assay-overview: physchem
- Type: physicochemical
- condition: organic solvent or mixture, thermodynamic from solid, Solubility in PEG400
measured-quantity: solubility at 4 h

>  <smiles-repr>
CCCCC(=O)OCc1nc(N(C)[C@@H]2C[C@H]3CCC[C@@H](C2)N3S(=O)(=O)CC)nc(Nc2cc(C)[nH]n2)c1F

>  <value-observed>
> 10 mg/mL

$$$$
>  <smiles-repr>
CCS(=O)(=O)N1[C@@H]2CCC[C@H]1C[C@H](N(C)c1nc(CO)c(F)c(Nc3cc(C)[nH]n3)n1)C2

>  <value-observed>
< 5 mg/mL

$$$$
>  <smiles-repr>
CCC(=O)OCc1nc(N(C)[C@@H]2C[C@H]3CCC[C@@H](C2)N3S(=O)(=O)CC)nc(Nc2cc(C)[nH]n2)c1F

>  <value-observed>
> 10 mg/mL

$$$$
>  <smiles-repr>
CCS(=O)(=O)N1[C@@H]2CCC[C@H]1C[C@H](N(C)c1nc(COC(C)=O)c(F)c(Nc3cc(C)[nH]n3)n1)C2

>  <value-observed>
5 to 10 mg/mL

$$$$
>  <smiles-repr>
CCCC(=O)OCc1nc(N(C)[C@@H]2C[C@H]3CCC[C@@H](C2)N3S(=O)(=O)CC)nc(Nc2cc(C)[nH]n2)c1F

>  <value-observed>
> 10 mg/mL

$$$$
>  <smiles-repr>
CCS(=O)(=O)N1[C@@H]2CCC[C@H]1C[C@H](N(C)c1nc(COC(=O)OC3CCCCC3)c(F)c(Nc3cc(C)[nH]n3)n1)C2

>  <value-observed>
5 to 10 mg/mL

$$$$

---

- system-tested: JAK3 (Homo sapiens)
- Construct: GST; purchased Life Technologies
- Sequence (P52333 whole entry): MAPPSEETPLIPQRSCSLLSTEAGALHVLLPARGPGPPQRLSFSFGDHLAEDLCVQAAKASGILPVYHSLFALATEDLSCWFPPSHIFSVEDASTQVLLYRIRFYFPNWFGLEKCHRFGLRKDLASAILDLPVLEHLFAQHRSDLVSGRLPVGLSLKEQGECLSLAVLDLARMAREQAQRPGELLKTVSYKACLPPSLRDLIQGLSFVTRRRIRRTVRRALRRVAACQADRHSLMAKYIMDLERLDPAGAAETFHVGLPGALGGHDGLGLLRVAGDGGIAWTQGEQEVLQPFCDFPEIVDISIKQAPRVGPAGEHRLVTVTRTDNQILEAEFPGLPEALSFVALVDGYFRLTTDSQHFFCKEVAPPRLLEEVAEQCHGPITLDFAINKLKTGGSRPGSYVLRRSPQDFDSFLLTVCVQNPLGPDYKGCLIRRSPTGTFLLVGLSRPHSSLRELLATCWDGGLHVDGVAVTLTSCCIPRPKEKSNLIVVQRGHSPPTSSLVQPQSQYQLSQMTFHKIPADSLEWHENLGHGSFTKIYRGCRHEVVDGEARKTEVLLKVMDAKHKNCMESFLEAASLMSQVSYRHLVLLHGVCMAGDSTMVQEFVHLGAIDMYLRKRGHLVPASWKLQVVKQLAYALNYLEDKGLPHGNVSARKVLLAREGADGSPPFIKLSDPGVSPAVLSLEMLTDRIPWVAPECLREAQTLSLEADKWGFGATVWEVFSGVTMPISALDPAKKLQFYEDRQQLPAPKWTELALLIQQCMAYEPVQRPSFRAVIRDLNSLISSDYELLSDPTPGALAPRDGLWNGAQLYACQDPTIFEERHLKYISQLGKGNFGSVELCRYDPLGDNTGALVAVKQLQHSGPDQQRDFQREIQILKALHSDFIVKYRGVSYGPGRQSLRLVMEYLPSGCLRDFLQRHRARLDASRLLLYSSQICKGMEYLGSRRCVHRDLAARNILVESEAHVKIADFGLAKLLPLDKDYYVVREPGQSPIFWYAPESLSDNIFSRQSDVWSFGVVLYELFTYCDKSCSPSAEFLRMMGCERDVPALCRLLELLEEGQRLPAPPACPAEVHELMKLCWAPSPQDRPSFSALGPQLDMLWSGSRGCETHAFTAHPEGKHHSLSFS
- assay-overview: Biochemical LanthaScreen JAK3 kinase assay
- condition: Km ATP 1.6 μM; pKi from pIC50 by Cheng-Prusoff; read-out: JAK 3 (pKi) (converted)

>  <smiles-repr>
CCS(=O)(=O)N1[C@@H]2CCC[C@H]1C[C@H](N(C)c1nc(COC(=O)C3CCOCC3)c(F)c(Nc3cc(C)[nH]n3)n1)C2

>  <Ki>
0.1 to 1 nM

$$$$
>  <smiles-repr>
CCCC(=O)OCc1nc(N(C)[C@@H]2C[C@H]3CCC[C@@H](C2)N3S(=O)(=O)CC)nc(Nc2cc(C)[nH]n2)c1F

>  <Ki>
1 to 10 nM

$$$$
>  <smiles-repr>
CCS(=O)(=O)N1[C@@H]2CCC[C@H]1C[C@H](N(C)c1nc(COC(=O)OC(C)C)c(F)c(Nc3cc(C)[nH]n3)n1)C2

>  <Ki>
1 to 10 nM

$$$$
>  <smiles-repr>
CCS(=O)(=O)N1[C@@H]2CCC[C@H]1C[C@H](N(C)c1nc(COC(=O)OC3CCCCC3)c(F)c(Nc3cc(C)[nH]n3)n1)C2

>  <Ki>
10 to 100 nM

$$$$
>  <smiles-repr>
CCS(=O)(=O)N1[C@@H]2CCC[C@H]1C[C@H](N(C)c1nc(COC(C)=O)c(F)c(Nc3cc(C)[nH]n3)n1)C2

>  <Ki>
0.1 to 1 nM

$$$$
>  <smiles-repr>
CCS(=O)(=O)N1[C@@H]2CCC[C@H]1C[C@H](N(C)c1nc(COC(=O)OC3CCOCC3)c(F)c(Nc3cc(C)[nH]n3)n1)C2

>  <Ki>
1 to 10 nM

$$$$
>  <smiles-repr>
CCCCCCC(=O)OCc1nc(N(C)[C@@H]2C[C@H]3CCC[C@@H](C2)N3S(=O)(=O)CC)nc(Nc2cc(C)[nH]n2)c1F

>  <Ki>
10 to 100 nM

$$$$
>  <smiles-repr>
CCC(=O)OCc1nc(N(C)[C@@H]2C[C@H]3CCC[C@@H](C2)N3S(=O)(=O)CC)nc(Nc2cc(C)[nH]n2)c1F

>  <Ki>
0.1 to 1 nM

$$$$
>  <smiles-repr>
CCS(=O)(=O)N1[C@@H]2CCC[C@H]1C[C@H](N(C)c1nc(CO)c(F)c(Nc3cc(C)[nH]n3)n1)C2

>  <Ki>
0.1 to 1 nM

$$$$
>  <smiles-repr>
CCCCC(=O)OCc1nc(N(C)[C@@H]2C[C@H]3CCC[C@@H](C2)N3S(=O)(=O)CC)nc(Nc2cc(C)[nH]n2)c1F

>  <Ki>
1 to 10 nM

$$$$

---

- assay-overview: physchem
- Type: physicochemical
- condition: oil or lipid, thermodynamic from solid, Solubility in MCT
Here, each record is paired with measured solubility at 4 h data.

>  <smiles-repr>
CCS(=O)(=O)N1[C@@H]2CCC[C@H]1C[C@H](N(C)c1nc(COC(=O)OC3CCOCC3)c(F)c(Nc3cc(C)[nH]n3)n1)C2

>  <solubility at 4 h>
< 5000 µg/mL

$$$$
>  <smiles-repr>
CCS(=O)(=O)N1[C@@H]2CCC[C@H]1C[C@H](N(C)c1nc(COC(C)=O)c(F)c(Nc3cc(C)[nH]n3)n1)C2

>  <solubility at 4 h>
< 5000 µg/mL

$$$$
>  <smiles-repr>
CCS(=O)(=O)N1[C@@H]2CCC[C@H]1C[C@H](N(C)c1nc(CO)c(F)c(Nc3cc(C)[nH]n3)n1)C2

>  <solubility at 4 h>
< 5000 µg/mL

$$$$

---

Here, each record is paired with measured solubility at 4 h data.
- assay-overview: physchem
- Format: physicochemical
- condition: organic solvent or mixture, thermodynamic from solid, Solubility in Diisopropyl adipate
- Protocol: Assay 5: Solubility Assay in Organic Excipients The purpose of this assay was to quantify the solubility of test compounds in different organic excipients such as diisopropyl adipate, medium chain triglycerides (MCT), propylene glycol, and polyethylene glycol. The assay required 80 μL of 100 mM DMSO test compound solution per desired excipient in addition to 40 μL required to make a test standard. For example, to test a compound in all five […]) of 100 mM DMSO compound stock solution was required. […]
measured-quantity: solubility at 4 h

>  <smiles-repr>
CCS(=O)(=O)N1[C@@H]2CCC[C@H]1C[C@H](N(C)c1nc(COC(=O)OC3CCCCC3)c(F)c(Nc3cc(C)[nH]n3)n1)C2

>  <value-observed>
> 10000 µg/mL

$$$$
>  <smiles-repr>
CCS(=O)(=O)N1[C@@H]2CCC[C@H]1C[C@H](N(C)c1nc(COC(=O)OC(C)C)c(F)c(Nc3cc(C)[nH]n3)n1)C2

>  <value-observed>
> 10000 µg/mL

$$$$
>  <smiles-repr>
CCCCCCC(=O)OCc1nc(N(C)[C@@H]2C[C@H]3CCC[C@@H](C2)N3S(=O)(=O)CC)nc(Nc2cc(C)[nH]n2)c1F

>  <value-observed>
> 10000 µg/mL

$$$$

---

- system-tested: Tyk2 (Homo sapiens, UniProt P29597)
- Construct: GST; purchased Life Technologies
- Sequence (P29597 whole entry): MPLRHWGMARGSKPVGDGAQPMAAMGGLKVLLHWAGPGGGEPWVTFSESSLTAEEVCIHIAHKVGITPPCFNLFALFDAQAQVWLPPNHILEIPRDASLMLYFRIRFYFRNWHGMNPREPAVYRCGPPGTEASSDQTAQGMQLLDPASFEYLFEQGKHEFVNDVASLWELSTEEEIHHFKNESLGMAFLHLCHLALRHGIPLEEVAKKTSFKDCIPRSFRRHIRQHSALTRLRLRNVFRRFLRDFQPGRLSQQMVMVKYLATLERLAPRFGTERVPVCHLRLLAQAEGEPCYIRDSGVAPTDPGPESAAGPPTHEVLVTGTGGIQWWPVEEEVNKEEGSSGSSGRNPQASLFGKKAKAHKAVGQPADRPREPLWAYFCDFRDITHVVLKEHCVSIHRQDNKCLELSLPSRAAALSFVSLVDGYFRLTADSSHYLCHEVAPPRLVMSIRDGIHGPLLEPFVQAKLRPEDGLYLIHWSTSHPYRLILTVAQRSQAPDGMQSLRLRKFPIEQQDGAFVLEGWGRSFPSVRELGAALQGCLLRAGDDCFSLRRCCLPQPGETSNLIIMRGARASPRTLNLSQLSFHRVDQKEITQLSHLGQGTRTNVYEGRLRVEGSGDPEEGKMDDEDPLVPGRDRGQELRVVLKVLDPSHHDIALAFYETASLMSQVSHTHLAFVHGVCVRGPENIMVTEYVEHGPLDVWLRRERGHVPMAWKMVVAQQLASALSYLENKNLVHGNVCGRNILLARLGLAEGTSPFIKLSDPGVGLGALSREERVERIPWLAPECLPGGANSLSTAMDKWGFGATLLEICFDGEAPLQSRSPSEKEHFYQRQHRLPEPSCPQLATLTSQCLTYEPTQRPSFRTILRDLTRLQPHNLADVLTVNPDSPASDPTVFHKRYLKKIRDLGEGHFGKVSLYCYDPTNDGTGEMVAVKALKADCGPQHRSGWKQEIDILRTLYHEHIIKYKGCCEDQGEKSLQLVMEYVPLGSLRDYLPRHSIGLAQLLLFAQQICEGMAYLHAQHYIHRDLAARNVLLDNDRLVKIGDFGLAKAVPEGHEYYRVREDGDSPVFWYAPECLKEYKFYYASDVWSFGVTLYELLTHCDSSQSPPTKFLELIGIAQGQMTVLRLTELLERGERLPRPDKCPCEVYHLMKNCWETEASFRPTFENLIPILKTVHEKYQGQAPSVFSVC
- assay-overview: Biochemical LanthaScreen Tyk2 kinase assay
- condition: Km ATP 10 μM; pKi from pIC50 by Cheng-Prusoff; read-out: Tyk 2 (pKi) (converted)

>  <molecule>
CCS(=O)(=O)N1[C@@H]2CCC[C@H]1C[C@H](N(C)c1nc(CO)c(F)c(Nc3cc(C)[nH]n3)n1)C2 [Compound M]

>  <Ki>
0.1 to 1 nM

$$$$
>  <molecule>
CCS(=O)(=O)N1[C@@H]2CCC[C@H]1C[C@H](N(C)c1nc(COC(C)=O)c(F)c(Nc3cc(C)[nH]n3)n1)C2 [Compound 1]

>  <Ki>
≤ 0.1 nM

$$$$
>  <molecule>
CCS(=O)(=O)N1[C@@H]2CCC[C@H]1C[C@H](N(C)c1nc(COC(=O)C3CCOCC3)c(F)c(Nc3cc(C)[nH]n3)n1)C2 [Compound 7]

>  <Ki>
≤ 0.1 nM

$$$$
>  <molecule>
CCS(=O)(=O)N1[C@@H]2CCC[C@H]1C[C@H](N(C)c1nc(COC(=O)OC3CCOCC3)c(F)c(Nc3cc(C)[nH]n3)n1)C2 [Compound 9]

>  <Ki>
0.1 to 1 nM

$$$$
>  <molecule>
CCS(=O)(=O)N1[C@@H]2CCC[C@H]1C[C@H](N(C)c1nc(COC(=O)OC3CCCCC3)c(F)c(Nc3cc(C)[nH]n3)n1)C2 [Compound 6]

>  <Ki>
1 to 10 nM

$$$$
